Data credit: patent US8962609B2

system_name: UniProtKB Q9UHD2
method_summary: biochemical
condition_description: 20 μM ATP (apparent Km), 8 nM kinase, 2.5 hr; values are activity bands; read-out: Inhibition of TBK-1 IC50
quantity_kind: IC50

CN(C)CCN(C)c1ccc(Nc2nccc(-c3ccc(N4CCCC4)c(C#N)c3)n2)cn1 = < 30 nM

Task: Entry `Cn1nccc1Nc1nccc(-c2ccc(N3CCCC3)c(C#N)c2)n1` has what IC50?
Output: < 30 nM

Task: Field entry: `CS(=O)(=O)c1cccc(Nc2nccc(-c3ccc(N4CCCC4)c(C#N)c3)n2)c1`
Output: < 30 nM

Task: Next record, please: `Cn1ccc(Nc2nccc(-c3ccc(N4CCCC4)c(C#N)c3)n2)n1`
Output: 30 to 300 nM

Task: Please give the result for `CC(=O)Nc1cccc(Nc2nccc(-c3ccc(N4CCCC4)c(C#N)c3)n2)c1` too.
Output: < 30 nM

Task: Now this one: `CC(=O)Nc1ccc(Nc2nccc(-c3ccc(N4CCOCC4)c(C#N)c3)n2)cn1`
Output: < 30 nM

Task: Next molecule up: `CC(=O)N(C)c1ccc(Nc2nccc(-c3ccc(N4CCCC4)c(C#N)c3)n2)cc1`
Output: < 30 nM

Task: Try the molecule `CN(C)CCNc1ccc(Nc2nccc(-c3ccc(N4CCCC4)c(C#N)c3)n2)cn1`
Output: < 30 nM

Task: Can you handle `CN1CCN(c2ccc(Nc3nccc(-c4ccc(N5CC[C@H](O)C5)c(C#N)c4)n3)cn2)CC1` next?
Output: < 30 nM

Task: Next molecule: `C[C@H]1CCCN1c1ccc(-c2ccnc(Nc3ccc(NCCN(C)C)nc3)n2)cc1C#N`
Output: < 30 nM

Task: Next record, please: `CC(=O)Nc1ccc(Nc2nccc(-c3ccc(N4CCN(C)CC4)c(C#N)c3)n2)cn1`
Output: 30 to 300 nM

Task: Try this molecule next: `CN(C)CCOc1ccc(Nc2nccc(-c3ccc(N4CCCC4)c(C#N)c3)n2)cn1`
Output: < 30 nM

Task: Same thing, different molecule: `Cn1nccc1Nc1nccc(-c2ccc(N3CCC[C@@H]3C(N)=O)c(C#N)c2)n1`
Output: 300 to 3000 nM

Task: For `CN(C)CCNc1ccc(Nc2nccc(-c3ccc(N4CCC(O)CC4)c(C#N)c3)n2)cn1` then?
Output: 30 to 300 nM

Task: // next record `CC(=O)Nc1ccc(Nc2nccc(-c3ccc(N4CCC[C@@H]4C(N)=O)c(C#N)c3)n2)cn1`
Output: 30 to 300 nM

Task: Now try `CC(=O)Nc1ccc(Nc2nccc(-c3ccc(N4CCC[C@H]4C(N)=O)c(C#N)c3)n2)cn1` .
Output: 30 to 300 nM

Task: Try this molecule too: `N#Cc1cc(-c2ccnc(Nc3ccc(C(N)=O)cc3)n2)ccc1N1CCCC1`
Output: < 30 nM

Task: And for `CNC(=O)[C@H]1CCCN1c1ccc(-c2ccnc(Nc3ccc(NC(C)=O)nc3)n2)cc1C#N` ?
Output: < 9000 nM

* * *

system_name: TBK-1 (Homo sapiens (Human))
method_summary: biochemical
condition_description: 20 μM ATP (apparent Km), 8 nM kinase, 2.5 hr; values are activity bands; read-out: Inhibition of TBK-1 IC50
pIC50: −log10 of the molar value.
# pIC50 per record follows

Worked cases, pIC50 given:
CN1CCN(c2ccc(Nc3nccc(-c4ccc(N5CCCC5)c(C#N)c4)n3)cn2)CC1 = > 7.52
CN(C)CC(=O)Nc1ccc(Nc2nccc(-c3ccc(N4CCCC4)c(C#N)c3)n2)cn1 = > 7.52
CN(C)CCNc1ccc(Nc2nccc(-c3ccc(N4CC[C@H](F)C4)c(C#N)c3)n2)cn1 = > 7.52
N#Cc1cc(-c2ccnc(Nc3cccc(NC(=O)N4CCCC4)c3)n2)ccc1N1CCCC1 = > 7.52
N#Cc1cc(-c2ccnc(Nc3ccc4c(c3)CC(=O)N4)n2)ccc1N1CCCC1 = > 7.52

Turning now to a further record.
Task: Fill in the blank: the reported pIC50 of `Cn1cc(Nc2nccc(-c3ccc(N4CCC(C(N)=O)CC4)c(C#N)c3)n2)cn1` is ____.
Output: 6.52 to 7.52

* * *

Collected IC50 values appear next to each entry.
system_name: Jnk1 (Homo sapiens (Human))
Sequence (P45983 whole entry): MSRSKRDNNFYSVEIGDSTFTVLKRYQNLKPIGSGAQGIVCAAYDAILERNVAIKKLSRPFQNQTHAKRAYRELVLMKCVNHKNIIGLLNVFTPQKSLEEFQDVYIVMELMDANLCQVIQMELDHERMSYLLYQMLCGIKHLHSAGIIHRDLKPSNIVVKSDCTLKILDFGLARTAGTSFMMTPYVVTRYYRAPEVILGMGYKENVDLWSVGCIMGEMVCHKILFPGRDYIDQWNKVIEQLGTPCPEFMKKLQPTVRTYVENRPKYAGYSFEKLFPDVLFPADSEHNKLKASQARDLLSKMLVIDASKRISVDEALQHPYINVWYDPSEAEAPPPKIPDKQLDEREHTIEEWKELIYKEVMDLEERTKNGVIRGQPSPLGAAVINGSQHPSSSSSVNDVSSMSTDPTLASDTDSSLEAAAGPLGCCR
method_summary: Jnk1 radiolabelled P33 ATP assay (Kinase Hotspot Technology)
Format: biochemical
condition_description: single point, 10 μM ATP; read-out: Concentration of compounds required for ~ 50% inhibition, Jnk-1
Output spec: scalar in µM, unitless text.

CC(=O)Nc1ccc(Nc2nccc(-c3ccc(N4CC(O)C4)c(C#N)c3)n2)cn1 = 1

Task: Recorded IC50 of `CN(C)CCNc1ccc(Nc2nccc(-c3ccc(N4CC[C@H](F)C4)c(C#N)c3)n2)cn1` , please.
Output: 1

* * *

system_name: IKKε (Homo sapiens (Human))
Sequence (Q14164 whole entry): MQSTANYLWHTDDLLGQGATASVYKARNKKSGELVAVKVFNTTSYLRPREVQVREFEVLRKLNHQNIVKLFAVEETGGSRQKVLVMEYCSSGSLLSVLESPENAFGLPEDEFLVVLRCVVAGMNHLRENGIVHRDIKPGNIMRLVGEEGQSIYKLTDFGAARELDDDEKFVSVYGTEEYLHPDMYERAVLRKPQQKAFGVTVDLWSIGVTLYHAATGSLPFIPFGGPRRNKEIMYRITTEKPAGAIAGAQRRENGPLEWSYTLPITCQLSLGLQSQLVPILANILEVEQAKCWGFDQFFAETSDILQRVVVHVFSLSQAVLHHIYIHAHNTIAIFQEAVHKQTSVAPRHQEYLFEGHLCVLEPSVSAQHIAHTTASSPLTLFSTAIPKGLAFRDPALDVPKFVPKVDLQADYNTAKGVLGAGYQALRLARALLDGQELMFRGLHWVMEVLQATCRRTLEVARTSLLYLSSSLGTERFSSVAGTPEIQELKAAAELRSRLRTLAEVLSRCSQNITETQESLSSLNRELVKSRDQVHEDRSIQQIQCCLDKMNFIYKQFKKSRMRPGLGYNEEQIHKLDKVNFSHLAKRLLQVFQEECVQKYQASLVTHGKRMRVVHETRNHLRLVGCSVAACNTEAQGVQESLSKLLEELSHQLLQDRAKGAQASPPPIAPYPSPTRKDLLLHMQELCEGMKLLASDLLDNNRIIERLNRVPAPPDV
method_summary: IKKε time-resolved fluorescence Lanthascreen kinase inhibition assay
Assay type: biochemical
condition_description: 20 μM ATP (apparent Km), 2 nM kinase, 1 hr; values are activity bands; read-out: Inhibition of IKKε IC50
quantity_kind: IC50

CC(=O)Nc1ccc(Nc2nccc(-c3ccc(N4CC[C@H](O)C4)c(C#N)c3)n2)cn1 = < 30 nM
CN(C)CCNC(=O)c1cccc(Nc2nccc(-c3ccc(N4CCCC4)c(C#N)c3)n2)c1 = < 30 nM
CN(C)CC(=O)Nc1ccc(Nc2nccc(-c3ccc(N4CCCC4)c(C#N)c3)n2)cn1 = < 30 nM
Cn1cc(Nc2nccc(-c3ccc(N4CCCC4)c(C#N)c3)n2)cn1 = < 30 nM

Task: Which IC50 is reported with IKKε (Homo sapiens (Human)) for this entry: `CS(=O)(=O)c1cccc(Nc2nccc(-c3ccc(N4CCCC4)c(C#N)c3)n2)c1` ?
Output: < 30 nM

Task: // query: `CN1CCC(Nc2ccc(Nc3nccc(-c4ccc(N5CCC(F)(F)C5)c(C#N)c4)n3)cn2)CC1`
Output: < 30 nM

Task: Please give the result for `N#Cc1cc(-c2ccnc(Nc3ccc4c(c3)NC(=O)CC4)n2)ccc1N1CCCC1` too.
Output: < 30 nM

Task: Then `N#Cc1cc(-c2ccnc(Nc3ccncc3)n2)ccc1N1CCCC1` ?
Output: 300 to 9000 nM

Task: Can you check `CC(=O)Nc1ccc(Nc2nccc(-c3ccc(N4CCN(C)CC4)c(C#N)c3)n2)cn1` next?
Output: 30 to 300 nM

Task: Proceed to `COc1ccc(Nc2nccc(-c3ccc(N4CCCC4)c(C#N)c3)n2)cn1`
Output: < 30 nM

Task: Ok, now `Cn1nccc1Nc1nccc(-c2ccc(N3CCC[C@@H]3C(N)=O)c(C#N)c2)n1`
Output: 30 to 300 nM

Task: Consider next the molecule `COc1ccc(Nc2nccc(-c3ccc(N4CCCC4)c(C#N)c3)n2)cc1` in the same way.
Output: < 30 nM

Task: Input `Cn1nccc1Nc1nccc(-c2ccc(N3CCCC3)c(C#N)c2)n1`
Output: 30 to 300 nM

Task: How about this molecule: `Cn1cncc1Nc1nccc(-c2ccc(N3CCCC3)c(C#N)c2)n1`
Output: 30 to 300 nM

Task: Would you kindly repeat that for `N#Cc1cc(-c2ccnc(Nc3ccc4c(c3)CC(=O)N4)n2)ccc1N1CCCC1` ?
Output: < 30 nM

Task: Next molecule: `COc1cccc(Nc2nccc(-c3ccc(N4CCCC4)c(C#N)c3)n2)c1`
Output: < 30 nM

Task: Same lookup for `CC(=O)Nc1ccc(Nc2nccc(-c3ccc(N4CCCC4)c(C#N)c3)n2)cc1` , please.
Output: < 30 nM

Task: Proceed to `N#Cc1cc(-c2ccnc(Nc3ccc(C(N)=O)cc3)n2)ccc1N1CCCC1`
Output: < 30 nM

* * *

IC50 values, listed per item
system_name: UniProt Q9UHD2
method_summary: biochemical
condition_description: 20 μM ATP (apparent Km), 8 nM kinase, 2.5 hr; values are activity bands; read-out: Inhibition of TBK-1 IC50

Some entries whose results are on file:
CN1CCC(Nc2ccc(Nc3nccc(-c4ccc(N5CCC(F)(F)C5)c(C#N)c4)n3)cn2)CC1 = < 30 nM
Cn1cc(Nc2nccc(-c3ccc(N4CCCC4)c(C#N)c3)n2)cn1 = < 30 nM
Cc1cc(C(N)=O)ccc1Nc1nccc(-c2ccc(N3CCCC3)c(C#N)c2)n1 = 30 to 300 nM

Task: Tell me the measured IC50 of `CN(C)CCNc1ccc(Nc2nccc(-c3ccc(N4CCC[C@@H]4C(N)=O)c(C#N)c3)n2)cn1` , please.
Output: 30 to 300 nM

Task: Follow-up entry: `CN1CCN(c2ccc(Nc3nccc(-c4ccc(N5CCC[C@@H]5C(N)=O)c(C#N)c4)n3)cn2)CC1`
Output: < 30 nM

* * *

system_name: TBK-1 (Homo sapiens (Human), UniProt Q9UHD2)
Sequence (Q9UHD2 whole entry): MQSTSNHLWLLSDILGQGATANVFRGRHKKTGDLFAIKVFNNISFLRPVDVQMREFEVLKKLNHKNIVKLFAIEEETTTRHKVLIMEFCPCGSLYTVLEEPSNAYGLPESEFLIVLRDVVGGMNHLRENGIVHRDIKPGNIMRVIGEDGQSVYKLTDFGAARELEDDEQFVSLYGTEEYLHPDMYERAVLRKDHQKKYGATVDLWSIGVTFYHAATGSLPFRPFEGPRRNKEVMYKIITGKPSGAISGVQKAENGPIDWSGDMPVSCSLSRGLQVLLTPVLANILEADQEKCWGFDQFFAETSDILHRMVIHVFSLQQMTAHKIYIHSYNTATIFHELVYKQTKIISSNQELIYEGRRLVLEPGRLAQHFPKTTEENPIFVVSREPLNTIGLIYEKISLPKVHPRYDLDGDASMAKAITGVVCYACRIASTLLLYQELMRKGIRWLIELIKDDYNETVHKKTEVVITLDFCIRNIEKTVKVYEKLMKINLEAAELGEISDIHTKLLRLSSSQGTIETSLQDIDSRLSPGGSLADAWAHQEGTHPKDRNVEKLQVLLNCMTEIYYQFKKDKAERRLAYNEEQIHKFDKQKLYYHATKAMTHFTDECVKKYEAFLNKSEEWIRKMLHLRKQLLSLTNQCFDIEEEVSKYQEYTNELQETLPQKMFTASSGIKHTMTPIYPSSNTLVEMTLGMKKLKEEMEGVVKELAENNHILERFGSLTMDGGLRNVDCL
method_summary: biochemical
condition_description: 20 μM ATP (apparent Km), 8 nM kinase, 2.5 hr; values are activity bands; read-out: Inhibition of TBK-1 IC50
pIC50: −log10 of the molar value.
quantity_kind: pIC50

CC(=O)Nc1ccc(Nc2nccc(-c3ccc(N4CCCC4)c(C#N)c3)n2)cn1 = > 7.52
CNC(=O)C1CCN(c2ccc(-c3ccnc(Nc4ccc(NC(C)=O)nc4)n3)cc2C#N)CC1 = 6.52 to 7.52
N#Cc1cc(-c2ccnc(Nc3cccc(C(N)=O)c3)n2)ccc1N1CCCC1 = > 7.52
CN1CCC(Nc2ccc(Nc3nccc(-c4ccc(N5CC[C@H](F)C5)c(C#N)c4)n3)cn2)CC1 = > 7.52

Task: // pIC50 lookup, key: `CC(=O)Nc1ccc(Nc2nccc(-c3ccc(N4CC[C@H](O)C4)c(C#N)c3)n2)cn1`
Output: > 7.52

Task: Ok, now `Cn1cnc(Nc2nccc(-c3ccc(N4CCCC4)c(C#N)c3)n2)c1`
Output: 6.52 to 7.52

Task: One more compound: `CC(=O)Nc1ccc(Nc2nccc(-c3ccc(N4CC(O)C4)c(C#N)c3)n2)cn1`
Output: > 7.52

Task: Moving on to the next compound: `Cn1cncc1Nc1nccc(-c2ccc(N3CCCC3)c(C#N)c2)n1`
Output: 6.52 to 7.52

Task: Next entry: `CO[C@H]1CCN(c2ccc(-c3ccnc(Nc4ccc(NC(C)=O)nc4)n3)cc2C#N)C1`
Output: > 7.52
